Origin of values: patent US20230416410A1

- testTarget: recombinant bovine FcRn (bovine) (UniProt F6R592)
- Sequence (chain, as listed by the source, chain 1 of 2): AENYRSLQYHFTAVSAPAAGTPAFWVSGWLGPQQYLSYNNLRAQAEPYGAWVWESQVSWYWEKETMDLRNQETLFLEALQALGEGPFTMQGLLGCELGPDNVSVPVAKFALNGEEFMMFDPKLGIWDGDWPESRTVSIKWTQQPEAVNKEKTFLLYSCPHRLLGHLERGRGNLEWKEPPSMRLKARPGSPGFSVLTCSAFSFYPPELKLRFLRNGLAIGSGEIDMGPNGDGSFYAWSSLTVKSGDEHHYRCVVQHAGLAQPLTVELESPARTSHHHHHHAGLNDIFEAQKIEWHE
- Sequence (P01888 21-118, chain 2 of 2): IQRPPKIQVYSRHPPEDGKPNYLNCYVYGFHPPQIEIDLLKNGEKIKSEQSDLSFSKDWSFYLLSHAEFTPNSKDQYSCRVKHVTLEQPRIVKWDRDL
- protocolText: SPR Biacore, bFcRn on SA sensor, pH 6, 25 C
Kd listing for selected binders.
Note: unit nM is implicit; provide only the numeric part.

Known Kd results, listed for orientation:
{"binder": "bIgG2a_L432A_M437A mAb (antibody, part only; not given: variable domains, not shown: another chain or arm of the molecule) constant: ASTTAPKVYPLTSCCGDKSSSRVTLGCLVSSYMPEPVTVTWNSGALKSGVHTFPAVLQSSGLYSLSSMVTVPGSSSGQTFTCNVAHPASSTKVDKAVGVSSDCSKPNNQHCVREPSVFIFPPKPKDTLMITGTPEVTCVVVNVGHDNPEVQFSWFVDDVEVHTARTKPREEQFNSTYRVVSALPIQHQDWTGGKEFKCKVNIKGLSASIVRIISRSKGPAREPQVYVLDPPKEELSKSTVSVTCMVIGFYPEDVDVEWQRDRQTESEDKYRTTPPQLDADRSYFLYSKLRVDRNSWQRGDTYTCVVMHEAAHNHYAQKSTSKSAGK", "Kd, nM": 3.03}
{"binder": "bIgG2a_L432A_N434A mAb (antibody, part only; not given: variable domains, not shown: another chain or arm of the molecule) constant: ASTTAPKVYPLTSCCGDKSSSRVTLGCLVSSYMPEPVTVTWNSGALKSGVHTFPAVLQSSGLYSLSSMVTVPGSSSGQTFTCNVAHPASSTKVDKAVGVSSDCSKPNNQHCVREPSVFIFPPKPKDTLMITGTPEVTCVVVNVGHDNPEVQFSWFVDDVEVHTARTKPREEQFNSTYRVVSALPIQHQDWTGGKEFKCKVNIKGLSASIVRIISRSKGPAREPQVYVLDPPKEELSKSTVSVTCMVIGFYPEDVDVEWQRDRQTESEDKYRTTPPQLDADRSYFLYSKLRVDRNSWQRGDTYTCVVMHEAAHAHYMQKSTSKSAGK", "Kd, nM": 1.7}
{"binder": "bIgG3a wildtype mAb (antibody, part only; not given: variable domains, not shown: another chain or arm of the molecule) constant: ASTTAPKVYPLASSCGDTSSSTVTLGCLVSSYMPEPVTVTWNSGALKSGVHTFPAVRQSSGLYSLSSMVTVPASSSETQTFTCNVAHPASSTKVDKAVTARRPVPTTPKTTIPPGKPTTPKSEVEKTPCQCSKCPEPLGGLSVFIFPPKPKDTLTISGTPEVTCVVVDVGQDDPEVQFSWFVDDVEVHTARTKPREEQFNSTYRVVSALRIQHQDWLQGKEFKCKVNNKGLPAPIVRTISRTKGQAREPQVYVLAPPREELSKSTLSLTCLITGFYPEEIDVEWQRNGQPESEDKYHTTAPQLDADGSYFLYSKLRVNKSSWQEGDHYTCAVMHEALRNHYKEKSISRSPGK", "Kd, nM": 30.2}

Consider the additional binder presented here.
Returns the measured Kd for the input binder. Input: bIgG2a_N434A_M437A mAb (antibody, part only; not given: variable domains, not shown: another chain or arm of the molecule) constant: ASTTAPKVYPLTSCCGDKSSSRVTLGCLVSSYMPEPVTVTWNSGALKSGVHTFPAVLQSSGLYSLSSMVTVPGSSSGQTFTCNVAHPASSTKVDKAVGVSSDCSKPNNQHCVREPSVFIFPPKPKDTLMITGTPEVTCVVVNVGHDNPEVQFSWFVDDVEVHTARTKPREEQFNSTYRVVSALPIQHQDWTGGKEFKCKVNIKGLSASIVRIISRSKGPAREPQVYVLDPPKEELSKSTVSVTCMVIGFYPEDVDVEWQRDRQTESEDKYRTTPPQLDADRSYFLYSKLRVDRNSWQRGDTYTCVVMHEALHAHYAQKSTSKSAGK
2.31
